subject of test: Recombinant human Bcl-2 protein (Homo sapiens (Human), UniProt P10415)
Sequence (P10415 whole entry): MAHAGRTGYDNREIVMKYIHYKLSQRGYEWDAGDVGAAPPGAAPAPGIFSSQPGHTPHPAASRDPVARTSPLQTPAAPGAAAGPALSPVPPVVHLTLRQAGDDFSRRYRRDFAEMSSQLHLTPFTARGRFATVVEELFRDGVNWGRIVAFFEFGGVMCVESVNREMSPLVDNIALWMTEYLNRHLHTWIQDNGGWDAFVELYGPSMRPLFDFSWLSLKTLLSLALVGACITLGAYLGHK
experiment notes: Bcl-2 TR-FRET Assay
Format: binding
settings: Bcl-2 wild type, TR-FRET; read-out: Biochemical assay (IC50, nM) Bcl-2 WT
List of IC50 values.
Express it in nM; write the number only.

>  <molecule>
COc1cc(CN2CCN(C3CC4(CCN(c5ccc(C(=O)NS(=O)(=O)c6ccc(NC[C@H]7CC[C@](C)(O)CC7)c([N+](=O)[O-])c6)c(Oc6cnc7[nH]ccc7c6)c5)CC4)C3)[C@H](c3ccccc3C(C)C)C2)cc2c1OCC2(C)C [Example 286]

>  <IC50, nM>
0.1

$$$$

Let us move to another entry and its IC50.
Any idea what IC50 was measured for COc1cc(CN2CCN(C3CC4(CCN(c5ccc(C(=O)NS(=O)(=O)c6ccc(NC[C@H]7CC[C@](C)(O)CC7)c([N+](=O)[O-])c6)c(Oc6cnc7[nH]cc(F)c7c6)c5)CC4)C3)[C@H](c3ccccc3C(C)C)C2)ccc1C(C)C [Example 264] ?
1.9

---

Form field: pIC50 (one value per entry).
subject of test: recombinant human Bcl-2 D103Y protein (Homo sapiens (Human), UniProt P10415, D103Y)
Sequence (P10415 whole entry D103Y): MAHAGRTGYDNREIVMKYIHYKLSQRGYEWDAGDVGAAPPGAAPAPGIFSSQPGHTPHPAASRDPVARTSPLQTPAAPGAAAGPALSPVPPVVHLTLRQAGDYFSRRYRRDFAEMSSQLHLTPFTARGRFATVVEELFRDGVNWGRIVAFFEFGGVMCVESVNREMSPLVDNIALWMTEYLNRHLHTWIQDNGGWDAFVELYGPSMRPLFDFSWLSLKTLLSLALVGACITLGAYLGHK
experiment notes: Bcl-2-D103Y Biochemical Assay (TR-FRET)
settings: TR-FRET, FITC labeled Bak peptide
Scale: pIC50 equals -log10([C]), with [C] in mol/L.

>  <molecule>
COc1ccc(CN2CCN(C3CC4(CCN(c5ccc(C(=O)NS(=O)(=O)c6ccc(NC[C@H]7CC[C@](C)(O)CC7)c([N+](=O)[O-])c6)c(Oc6cnc7[nH]cc(F)c7c6)c5)CC4)C3)[C@H](c3ccccc3C(C)C)C2)cn1 [Example 217]

>  <result number>
10.00

$$$$

Now, please, on to the next molecule.
// lookup pIC50 | system=recombinant human Bcl-2 D103Y protein (Homo sapiens (Human), UniProt P10415, D103Y) | key= COc1ccc(CN2CCN(C3CC4(CCN(c5ccc(C(=O)NS(=O)(=O)c6ccc(NC[C@H]7CC[C@](C)(O)CC7)c([N+](=O)[O-])c6)c(Oc6cnc7[nH]ccc7c6)c5)CC4)C3)C(c3ccccc3C(C)C)C2)c2c1OCCO2 (some centres unmarked) [Example 203]
10.08

---

subject of test: recombinant human Bcl-2 D103Y protein (Homo sapiens (Human), UniProt P10415, D103Y)
experiment notes: Bcl-2-D103Y Biochemical Assay (TR-FRET)
Assay type: binding
settings: comparison in words
property: ratio of Bcl-2 D103Y/Bcl-2 wt, compared with F91b in WO2019210828

>  <molecule>
COc1ccc(CN2CCN(C3CC4(C3)CN(c3ccc(C(=O)NS(=O)(=O)c5ccc(NC[C@H]6CC[C@](C)(O)CC6)c([N+](=O)[O-])c5)c(Oc5cnc6[nH]ccc6c5)c3)C4)[C@H](c3ccccc3C(C)C)C2)cc1OC

>  <result>
significantly lower

$$$$
>  <molecule>
CC(C)c1ccccc1C1CN(Cc2ccccc2)CCN1C1CC2(CCN(c3ccc(C(=O)NS(=O)(=O)c4ccc(NC[C@H]5CC[C@](C)(O)CC5)c([N+](=O)[O-])c4)c(Oc4cnc5[nH]ccc5c4)c3)CC2)C1 (stereo partly drawn)

>  <result>
significantly lower

$$$$
>  <molecule>
COc1ccc(CN2CCN(C3CC4(CCN(c5ccc(C(=O)NS(=O)(=O)c6ccc(NC[C@H]7CC[C@](C)(O)CC7)c([N+](=O)[O-])c6)c(Oc6cnc7[nH]ccc7c6)c5)CC4)C3)[C@H](c3ccccc3C(C)C)C2)cc1 [Example 19a]

>  <result>
significantly lower

$$$$
